Measured values drawn from patent US20100056526A1 for this set.

biological target: PPARγ (Homo sapiens, UniProt P37231); construct: expressed in transfected cells; host or cells: CHO-K1; assay: Evaluation of PPARγ activating action (luciferase reporter in PPARγ:RXRα:4ERPP/CHO-K1 cells); assay type: cell-based; conditions: CHO-K1, 24 h; test compound 10^−6 M; luciferase activity relative to control compound X (1 μM) = 100%, non-administration group = 0%; read-out: PPARγ activating action (activation % (10^−6 M))
Sequence (P37231 29-505): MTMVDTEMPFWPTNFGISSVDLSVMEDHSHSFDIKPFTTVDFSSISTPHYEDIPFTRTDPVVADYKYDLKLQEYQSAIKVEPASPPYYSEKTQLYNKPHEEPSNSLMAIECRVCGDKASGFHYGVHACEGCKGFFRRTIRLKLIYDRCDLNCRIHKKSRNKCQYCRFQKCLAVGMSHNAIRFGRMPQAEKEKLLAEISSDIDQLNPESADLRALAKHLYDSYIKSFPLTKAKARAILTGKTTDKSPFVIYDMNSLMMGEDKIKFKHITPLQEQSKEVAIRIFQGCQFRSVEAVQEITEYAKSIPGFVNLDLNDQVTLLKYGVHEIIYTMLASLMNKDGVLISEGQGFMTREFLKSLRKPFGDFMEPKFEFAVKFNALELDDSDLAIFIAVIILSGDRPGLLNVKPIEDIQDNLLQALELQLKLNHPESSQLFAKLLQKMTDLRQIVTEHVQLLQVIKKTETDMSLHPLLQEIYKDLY
Sequence (P19793 whole entry partner): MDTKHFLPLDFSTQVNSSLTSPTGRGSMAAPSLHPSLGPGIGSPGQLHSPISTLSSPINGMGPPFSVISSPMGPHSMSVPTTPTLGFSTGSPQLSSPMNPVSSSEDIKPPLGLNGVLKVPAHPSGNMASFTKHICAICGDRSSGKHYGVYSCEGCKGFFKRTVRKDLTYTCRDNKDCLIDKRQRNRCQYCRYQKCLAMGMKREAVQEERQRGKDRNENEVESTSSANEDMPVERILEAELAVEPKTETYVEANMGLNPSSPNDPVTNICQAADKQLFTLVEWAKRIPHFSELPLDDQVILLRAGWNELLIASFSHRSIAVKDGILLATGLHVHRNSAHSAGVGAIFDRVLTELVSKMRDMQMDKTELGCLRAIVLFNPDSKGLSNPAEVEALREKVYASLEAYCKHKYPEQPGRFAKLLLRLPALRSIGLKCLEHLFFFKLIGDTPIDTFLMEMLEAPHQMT
Note to self: values exactly at 30% are fulfilled. So activation at 1 µM at or above 30% is fulfilled, below is not fulfilled.

> print(dat)
                                    molecule      classname
 1  C#CCC(C)Oc1ccc(-n2c(C)nc(CCC)c(Cc3ccc(-c4ccccc4-c4noc(=O)[nH]4)cc3)c2=O)cc1 (stereo not drawn)      fulfilled
 2  CCCCc1nc(C)n(CCc2ccc(OC)cc2)c(=O)c1Cc1ccc(-c2ccccc2-c2noc(=O)[nH]2)cc1      fulfilled
 3  CCCc1nc(CC)c(-c2ccc(OC(C)(C)CO)cc2)c(=O)n1Cc1ccc(-c2ccccc2-c2noc(O)n2)cc1  not fulfilled
 4  CCCc1nc(C)n(-c2ccc(OC(CC)CC)cc2)c(=O)c1Cc1ccc(-c2ccccc2-c2noc(=O)[nH]2)cc1      fulfilled
 5  CCCc1nc(CC)n(-c2ccc(OC3CCC(O)C3)cc2)c(=O)c1Cc1ccc(-c2ccccc2-c2noc(=O)[nH]2)cc1 (stereo not drawn)      fulfilled
 6  CCCc1nc(C)c(-c2ccc(OC(C)(C)CO)cc2)c(=O)n1Cc1ccc(-c2ccccc2-c2noc(=O)[nH]2)cc1F  not fulfilled
 7  CCCc1nc(CC)n(-c2ccc(OC3(CO)CCC3)cc2)c(=O)c1Cc1ccc(-c2ccccc2-c2noc(=O)[nH]2)cc1  not fulfilled
 8  CCCc1nc(CC)n(-c2ccc(OC(COCC)COCC)cc2)c(=O)c1Cc1ccc(-c2ccccc2-c2noc(=O)[nH]2)cc1  not fulfilled
 9  CCCc1nc(C)n(-c2ccc(OC3CCC(=O)CC3)cc2)c(=O)c1Cc1ccc(-c2ccccc2-c2noc(O)n2)cc1F  not fulfilled
10  CCCCc1nc(C)n(-c2ccc3c(c2)CC(C)(C)O3)c(=O)c1Cc1ccc(-c2ccccc2-c2nsc(=O)[nH]2)cc1  not fulfilled
11  CCCc1nc(C)n(-c2ccc(OC3CCC(O)CC3)cc2)c(=O)c1Cc1ccc(-c2ccccc2-c2noc(O)n2)cc1F (stereo not drawn)  not fulfilled
12  CCCc1nc(OC)n(-c2ccc(OC(C)(C)C)cc2)c(=O)c1Cc1ccc(-c2ccccc2-c2noc(O)n2)cc1      fulfilled
13  CCCc1nc(C)n(-c2ccc3c(c2)C(=O)CC(C)(C)O3)c(=O)c1Cc1ccc(-c2ccccc2-c2noc(=O)[nH]2)cc1      fulfilled
14  CCCCc1nc(C)c(C(O)c2ccccc2)c(=O)n1Cc1ccc(-c2ccccc2-c2noc(=O)[nH]2)cc1 (stereo not drawn)      fulfilled
15  CCCCc1nc(C2CC2)n(-c2ccc3c(c2)CCO3)c(=O)c1Cc1ccc(-c2ccccc2-c2noc(=O)[nH]2)cc1      fulfilled
16  CCCc1nc(CC)n(-c2ccc(OC3CCC(=O)CC3)cc2)c(=O)c1Cc1ccc(-c2ccccc2-c2noc(=O)[nH]2)cc1      fulfilled
17  CCCc1nc(CC)c(-c2ccc(OC(C)(C)CO)cc2)c(=O)n1Cc1ccc(-c2ccccc2-c2noc(=O)[nH]2)cc1F      fulfilled
18  CCCc1nc(C)c(-c2ccc(OC(C)(C)C)cc2)c(=O)n1Cc1ccc(-c2ccccc2-c2noc(O)n2)cc1F  not fulfilled
19  CCCc1nc(CC)c(Oc2ccc3c(c2)OCO3)c(=O)n1Cc1ccc(-c2ccccc2-c2noc(O)n2)cc1  not fulfilled
20  CCCc1nc(CC)n(-c2ccc(OC3CCC[C@H]3O)cc2)c(=O)c1Cc1ccc(-c2ccccc2-c2noc(=O)[nH]2)cc1 (stereo partly drawn)  not fulfilled
21  CCCc1nc(OC)n(-c2ccc(O[C@@H]3C[C@@H](C)O[C@@H](C)C3)cc2)c(=O)c1Cc1ccc(-c2ccccc2-c2noc(=O)[nH]2)cc1      fulfilled
22  CCCc1nc(C)n(-c2ccc3c(c2)CCC(C)(C)O3)c(=O)c1Cc1ccc(-c2ccccc2-c2noc(=O)[nH]2)cc1      fulfilled
23  CCCc1nc(C)n(-c2ccc(OC(C)(C)C(C)O)cc2)c(=O)c1Cc1ccc(-c2ccccc2-c2noc(=O)[nH]2)cc1 (stereo not drawn)  not fulfilled
24  CCCc1nc(OC)n(-c2ccc(OC(C)C)cc2)c(=O)c1Cc1ccc(-c2ccccc2-c2noc(O)n2)cc1      fulfilled
25  CCCc1nc(C)n(-c2ccc(OC3CCC3)c(F)c2)c(=O)c1Cc1ccc(-c2ccccc2-c2noc(=O)[nH]2)cc1  not fulfilled
